Experiment: ATG_FoxO_CIS: Attagene CIS-FACTORIAL HepG2 Assay for human Forkhead box O (FoxO) (AID 2282943)
Conditions: HepG2 Attagene cis-reporter, FoxO element, mRNA; actives raise or lower the signal
Active and inactive are the calls of the source. The calls were made as follows: active = hit-call score of the fitted dose curve at least 0.9, where 1 is the maximum; inactive = score below 0.9.
Write down the outcome that applies. Available outcomes: yes (active), no (inactive)

smiles_record=FCOC(C(F)(F)F)C(F)(F)F class=no
smiles_record=C=CC(F)(F)C(F)(F)C(F)(F)C(F)(F)F class=no
smiles_record=CN(CCO)S(=O)(=O)C(F)(F)C(F)(F)C(F)(F)C(F)(F)C(F)(F)C(F)(F)C(F)(F)C(F)(F)F class=no
smiles_record=C=CC(=O)OCC(CO)(COCC(COC(=O)C=C)(COC(=O)C=C)COC(=O)C=C)COC(=O)C=C class=yes
smiles_record=OCC(F)(F)C(F)(F)C(F)(F)C(F)(F)C(F)(F)C(F)(F)C(F)(F)C(F)(F)C(F)(F)C(F)(F)C(F)(F)F class=no
smiles_record=C=CC(=O)OCCC(F)(F)C(F)(F)C(F)(F)C(F)(F)C(F)(F)C(F)(F)C(F)(F)C(F)(F)F class=no

Short answer needed: outcome of this test for Cc1ccc(C)c(S(=O)(=O)O)c1 ?
no

Could you please tell me the result logged for C=CC(=O)OCCC(F)(F)C(F)(F)C(F)(F)C(F)(F)C(F)(F)C(F)(F)F in this assay?
no

In this assay, the call recorded for CC1=NN(c2ccccc2)C(=O)C1 was what?
no

What did the test return for CCN(CC)CC ?
no

How did this test come out for O=CC(F)(F)C(F)(F)C(F)(F)C(F)F ?
no

----------
Read-out: Transforming growth factor beta 1 (TGFb1), TGFB1 (gene 7040)
Assay: BSK_KF3CT_TGFb1: BioMAP Diversity Plus: KF3CT Assay for Transforming growth factor beta 1 (TGFb1) Biomarker Activity (AID 2283072)
Conditions: primary human keratinocytes with fibroblasts; actives raise or lower the signal
Calls of active or inactive are those of the source. How the source made its calls: active means hit-call score of the fitted dose curve at least 0.9, where 1 is the maximum; inactive means score below 0.9.
Thanks in advance; please answer with one of these: TRUE for active, FALSE for inactive

Solved cases (2 shown):
compound=COC1=CC(=O)C[C@@H](C)[C@]12Oc1c(Cl)c(OC)cc(OC)c1C2=O class=FALSE
compound=O=C(CCCN1CCC(O)(c2ccc(Cl)cc2)CC1)c1ccc(F)cc1 class=FALSE

Please examine the following record next.
Look up the recorded call for C=CC(C)(CCC=C(C)C)OC(C)=O (centres undefined) in this test.
FALSE

----------
Read-out: Urokinase-type plasminogen activator receptor (uPAR), PLAUR (gene 5329)
Experiment: BSK_CASM3C_uPAR: BioMAP Diversity Plus: CASM3C Assay for Urokinase-type plasminogen activator receptor (uPAR) Biomarker Activity (AID 2283054);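 also: cell-surface uPAR protein level quantified by ELISA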
Details: primary human coronary artery smooth muscle cells; actives raise or lower the signal
The source made the active and inactive calls. How the source made its calls: active means hit-call score of the fitted dose curve at least 0.9, where 1 is the maximum; inactive means score below 0.9.
The categories you may choose from are 1 for active, 0 for inactive

Dear all, I need the recorded test outcome for O=C(c1ccccc1)c1ccccc1 , thank you.
0

Status in this test for CN(Cc1cnc2nc(N)nc(N)c2n1)c1ccc(C(=O)N[C@@H](CCC(=O)O)C(=O)O)cc1 ?
0

Look up the recorded call for O=P(O)(O)CCC(F)(F)C(F)(F)C(F)(F)C(F)(F)C(F)(F)C(F)(F)C(F)(F)C(F)(F)F in this test.
0
